Entries and their MIC
test system: Klebsiella aerogenes; experiment: In vitro antibacterial activity against Enterobacter aerogenes ATCC 13048; type: functional

structure_smiles: CCn1cc(C(=O)O)c(=O)c2cc(F)c(-c3coc(C)n3)cc21
qualifying_sign: =
MIC [µg/mL]: 50
//
structure_smiles: CCn1cc(C(=O)O)c(=O)c2cc(F)c(C(=O)O)cc21
qualifying_sign: >
MIC [µg/mL]: 100
//
structure_smiles: CCn1cc(C(=O)O)c(=O)c2cc(F)c(C(=O)NCCO)cc21
qualifying_sign: >
MIC [µg/mL]: 100
//
structure_smiles: CCn1cc(C(=O)O)c(=O)c2cc(F)c(C3=NCCCO3)cc21
qualifying_sign: >
MIC [µg/mL]: 100
//
structure_smiles: CCn1cc(C(=O)O)c(=O)c2cc(F)c(-c3c[nH]cn3)cc21.Cl
qualifying_sign: =
MIC [µg/mL]: 50
//
structure_smiles: O=C(O)c1cn(C2CC2)c2cc(N3CCNCC3)c(F)cc2c1=O
qualifying_sign: =
MIC [µg/mL]: 0.05
//
structure_smiles: CCn1cc(C(=O)O)c(=O)c2cc(F)c(C3=NCCO3)cc21
qualifying_sign: =
MIC [µg/mL]: 12.5
//
structure_smiles: CCn1cc(C(=O)O)c(=O)c2cc(F)c(-c3cocn3)cc21
qualifying_sign: =
MIC [µg/mL]: 12.5
//
structure_smiles: CCn1cc(C(=O)O)c(=O)c2cc(F)c(-c3ccc(C)o3)cc21
qualifying_sign: =
MIC [µg/mL]: 12.5
//
structure_smiles: CCn1cc(C(=O)O)c(=O)c2cc(F)c(C3=NC(C)(C)CO3)cc21
qualifying_sign: >
MIC [µg/mL]: 100
//
structure_smiles: CCn1cc(C(=O)O)c(=O)c2cc(F)c(-c3coc(N)n3)cc21
qualifying_sign: =
MIC [µg/mL]: 50

====

test system: Pseudomonas aeruginosa; experiment: In vitro antibacterial activity against Pseudomonas aeruginosa K799/WT; assay type: functional
Entries and their MIC
observable: MIC

compound: CCn1cc(C(=O)O)c(=O)c2cc(F)c(-c3ccc(C)o3)cc21
observable: MIC
obs_value: > 100 µg/mL
--
compound: CCn1cc(C(=O)O)c(=O)c2cc(F)c(C3=NC(C)(C)CO3)cc21
observable: MIC
obs_value: > 100 µg/mL
--
compound: CCn1cc(C(=O)O)c(=O)c2cc(F)c(-c3c[nH]cn3)cc21.Cl
observable: MIC
obs_value: > 100 µg/mL
--
compound: O=C(O)c1cn(C2CC2)c2cc(N3CCNCC3)c(F)cc2c1=O [CIPROFLOXACIN]
observable: MIC
obs_value: 0.2 µg/mL
--
compound: CCn1cc(C(=O)O)c(=O)c2cc(F)c(C(=O)NCCO)cc21
observable: MIC
obs_value: > 100 µg/mL
--
compound: CCn1cc(C(=O)O)c(=O)c2cc(F)c(C(=O)O)cc21
observable: MIC
obs_value: > 100 µg/mL
--
compound: CCn1cc(C(=O)O)c(=O)c2cc(F)c(-c3coc(N)n3)cc21
observable: MIC
obs_value: > 100 µg/mL
--
compound: CCn1cc(C(=O)O)c(=O)c2cc(F)c(C3=NCCO3)cc21
observable: MIC
obs_value: > 100 µg/mL
--
compound: CCn1cc(C(=O)O)c(=O)c2cc(F)c(-c3coc(C)n3)cc21
observable: MIC
obs_value: 50 µg/mL
--
compound: CCn1cc(C(=O)O)c(=O)c2cc(F)c(-c3cocn3)cc21
observable: MIC
obs_value: 100 µg/mL
--
compound: CCn1cc(C(=O)O)c(=O)c2cc(F)c(C3=NCCCO3)cc21
observable: MIC
obs_value: > 100 µg/mL
